Assignment: determine reported % inhibition of respiration at 1.8 × 10^-5 mol/l test substance, Saccharomyces cerevisiae for the given compounds.
Test system: mitochondrial respiration
Assay: Inhibition of mitochondrial respiration (rate of reduction of cytochrome c in isolated mitochondria), yeast
Format: biochemical, Saccharomyces cerevisiae
Details: DMSO control
Give bare numbers, in %.

CNC(=O)/C=C(/OC)c1ccccc1COc1ccc(C(C)=NOC)cc1C [Compound 1a.89]
99

Consider the following items and state reported % inhibition of respiration at 1.8 × 10^-5 mol/l test substance, Saccharomyces cerevisiae for each.
1. COC(=O)/C=C(/OC)c1ccccc1/C=C/C1CCCOC1 (stereo not shown) [Compound 1a.329]
2. CON=C(C)c1ccc(OCc2ccccc2/C(=C\C(=O)N(C)C)OC)c(C)c1 [Compound 1a.98]
3. COC(=O)/C=C(/OC)c1ccccc1/C=C/c1cnn(-c2ccc(Cl)cc2)c1 [Compound 1a.320]
4. COC(=O)/C=C(/OC)c1ccccc1/C=C/c1noc(-c2ccc(Cl)cc2)c1C [Compound 1a.322]
5. COC(=O)/C=C(/OC)c1ccccc1/C=C\c1ccccc1C(F)(F)F [Compound 1a.244]
6. COC(=O)/C=C(/OC)c1ccccc1/C=C\c1cnn(-c2cccc(Cl)c2)c1 [Compound 1a.317]
7. COC(=O)/C=C(/OC)c1ccccc1/C=C/c1ccc(C)cc1 [Compound 1a.250]

Found:
[9, 100, 98, 99, 65, 29, 99]

Consider the following items and state reported % inhibition of respiration at 1.8 × 10^-5 mol/l test substance, Saccharomyces cerevisiae for each.
1. COC(=O)/C=C(/OC)c1ccccc1/C=C/c1csc(-c2ccc(Cl)cc2)n1 [Compound 1a.314]
2. COC(=O)/C=C(/OC)c1ccccc1/C=C/c1cccc(Oc2ccccc2)c1 [Compound 1a.271]
3. COC(=O)/C=C(/OC)c1ccccc1/C=C/c1ccc(OCc2ccccc2)cc1 [Compound 1a.264]
4. CON=Cc1cccc(OCc2ccccc2/C(=C\C(=O)OC)OC)c1 [Compound 1a.62]

Found:
[99, 92, 98, 87]

Consider the following items and state reported % inhibition of respiration at 1.8 × 10^-5 mol/l test substance, Saccharomyces cerevisiae for each.
1. CCCCN(C)C(=O)/C=C(/OC)c1ccccc1COc1ccc(C(C)=NOC)cc1C [Compound 1a.101]
2. COC(=O)/C=C(\C)c1ccccc1COc1ccccc1C [Compound 1a.109]
3. COC(=O)/C=C(/OC)c1ccccc1C [Compound 1.1, methyl (E)-β-methoxy-2-methylcinnamate]
4. C#CCOC(=O)/C=C(/OC)c1ccccc1COc1ccc(C(C)=NOC)cc1C [Compound 1a.84]
5. COC(=O)/C=C(/OC)c1ccccc1/C=C\c1ccoc1 [Compound 1a.293]
6. COC(=O)/C=C(/OC)c1ccccc1/C=C/c1ccccc1C [Compound 1a.247]
7. COC(=O)/C=C(/OC)c1ccccc1COc1ccccc1C [Compound 1a.2]
8. COC(=O)/C=C(/OC)c1ccccc1/C=C/c1cnn(-c2cccc(Cl)c2)c1 [Compound 1a.316]

Found:
69
31
23
98
65
99
88
98

Consider the following items and state reported % inhibition of respiration at 1.8 × 10^-5 mol/l test substance, Saccharomyces cerevisiae for each.
1. COC(=O)/C=C(/OC)c1ccccc1/C=C/c1cc(-c2ccc(Cl)cc2)no1 [Compound 1a.300]
2. COC(=O)/C=C(/OC)c1ccccc1/C=C/c1cccc(C(F)(F)F)c1 [Compound 1a.245]
3. CCNC(=O)/C=C(/OC)c1ccccc1COc1ccc(C(C)=NOC)cc1C [Compound 1a.91]
4. COC(=O)/C=C(/OC)c1ccccc1COc1cccc(C=NOCc2ccccc2Cl)c1 [Compound 1a.64]
5. COC(=O)/C=C(/OC)c1ccccc1/C=C/c1csc(-c2ccccc2)n1 [Compound 1a.306]
6. COC(=O)/C=C(/OC)c1ccccc1/C=C/c1cccc([N+](=O)[O-])c1 [Compound 1a.240]

Found:
[98, 98, 99, 94, 98, 94]

Consider the following items and state reported % inhibition of respiration at 1.8 × 10^-5 mol/l test substance, Saccharomyces cerevisiae for each.
1. COC(=O)/C=C(/OC)c1ccccc1CON=C(c1ccccc1)c1ccc(Cl)cc1 [Compound 1a.358]
2. C=CCOC(=O)/C=C(/OC)c1ccccc1COc1ccc(C(C)=NOC)cc1C [Compound 1a.83]
3. COC(=O)/C=C(/OC)c1ccccc1/C=C/c1cc(CC(C)C)no1 [Compound 1a.324]
4. COC(=O)/C=C(/OC)c1ccccc1/C=C\c1cccc([N+](=O)[O-])c1 [Compound 1a.241]
5. O=C(C=C(c1ccccc1)c1ccccc1)N1CCOCC1 [A, morpholide of β-phenylcinnamic acid, reference compound]
6. COC(=O)/C=C(/OC)c1ccccc1/C=C/c1csc(-c2ccc(F)cc2)n1 [Compound 1a.394]

Found:
1. 99
2. 78
3. 99
4. 20
5. 2
6. 96

Consider the following items and state reported % inhibition of respiration at 1.8 × 10^-5 mol/l test substance, Saccharomyces cerevisiae for each.
1. COC(=O)/C=C(/OC)c1ccccc1/C=C/c1cc[nH]c1 [Compound 1a.288]
2. C=CCON=Cc1cccc(OCc2ccccc2/C(=C\C(=O)OC)OC)c1 [Compound 1a.63]

Found:
[50, 93]
